Experiment: clinical
Settings: human, in vivo, tmax
REPORTED_METRIC: Tmax (min)

> print(dat)
                                smiles.data  reported.metric  result.number
1  O=C(NC[C@H]1CN(c2ccc(N3CCOCC3=O)cc2)C(=O)O1)c1ccc(Cl)s1             Tmax             30

---

Test: clinical
Details: human, in vivo, t1/2
REPORTED_METRIC: half-life (h)

> print(dat)
                                   compound  reported.metric  unit  result.number
1  O=C(NC[C@H]1CN(c2ccc(N3CCOCC3=O)cc2)C(=O)O1)c1ccc(Cl)s1 [rivaroxaban, Rivaroxaban]        half-life     h           6.56
